Readings of OD450 for the listed binders
tested.system: T1, human LAG-3 protein with hFc tag (hLAG-3-hFc protein) (human, UniProt P18627 23-450)
T1 construct: also called immunogen 1; LAG-3 extracellular domain protein; not shown: human IgG Fc fragment (hFc) of the pCpC vector
T1 sequence: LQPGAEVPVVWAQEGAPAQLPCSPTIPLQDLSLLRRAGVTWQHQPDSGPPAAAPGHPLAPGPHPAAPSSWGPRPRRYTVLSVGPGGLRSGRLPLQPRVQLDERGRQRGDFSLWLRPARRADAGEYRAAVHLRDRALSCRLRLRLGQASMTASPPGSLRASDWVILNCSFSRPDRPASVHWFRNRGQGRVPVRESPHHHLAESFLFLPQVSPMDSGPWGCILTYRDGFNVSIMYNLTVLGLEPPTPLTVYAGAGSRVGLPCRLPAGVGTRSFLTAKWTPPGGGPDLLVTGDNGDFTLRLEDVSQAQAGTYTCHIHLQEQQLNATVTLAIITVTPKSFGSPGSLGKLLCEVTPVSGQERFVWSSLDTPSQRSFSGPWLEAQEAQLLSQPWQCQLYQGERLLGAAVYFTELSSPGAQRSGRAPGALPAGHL
test.protocol: ELISA, hLAG-3-hFc coated; 0.0000 nM
Experimental: The plate was sealed with plastic film and incubated overnight at 4° C. The plate was washed 2 times with the plate washing solution (PBS+0.01% Tween20) on the next day, and added with the blocking solution (PBS+0.01% Tween20+1% BSA) and blocked at room temperature for 1-2 hours. […]
property.label: OD450 (OD450)

556F6B8 (LAG-3 mouse-human chimeric antibody) (antibody, V domains shown, also called 556F8B8) VH: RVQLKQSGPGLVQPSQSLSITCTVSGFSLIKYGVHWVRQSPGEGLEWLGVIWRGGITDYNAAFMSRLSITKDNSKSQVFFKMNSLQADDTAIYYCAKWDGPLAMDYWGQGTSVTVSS VL: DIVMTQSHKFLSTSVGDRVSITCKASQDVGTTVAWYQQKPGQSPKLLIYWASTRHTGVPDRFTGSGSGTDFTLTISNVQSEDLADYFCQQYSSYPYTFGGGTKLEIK	0.12
105F1E10 (LAG-3 mouse-human chimeric antibody) (antibody, V domains shown) VH: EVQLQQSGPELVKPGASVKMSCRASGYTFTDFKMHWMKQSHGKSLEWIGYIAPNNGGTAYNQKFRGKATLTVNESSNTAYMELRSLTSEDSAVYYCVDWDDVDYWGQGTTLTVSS VL: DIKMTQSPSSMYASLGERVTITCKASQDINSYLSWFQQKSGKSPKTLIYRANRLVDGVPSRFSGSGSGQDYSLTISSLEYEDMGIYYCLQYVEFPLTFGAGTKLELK	0.11
409D4E10 (LAG-3 mouse-human chimeric antibody) (antibody, V domains shown) VH: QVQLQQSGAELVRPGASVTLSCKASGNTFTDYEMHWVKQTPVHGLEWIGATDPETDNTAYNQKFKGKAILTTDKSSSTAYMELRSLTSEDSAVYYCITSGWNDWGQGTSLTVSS VL: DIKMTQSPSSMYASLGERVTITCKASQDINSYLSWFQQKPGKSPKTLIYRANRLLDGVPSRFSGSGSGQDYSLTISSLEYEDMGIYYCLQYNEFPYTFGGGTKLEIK	0.14
